system name: Human NKp46 Fc tag (Acro Biosystems, NC1-H5257) (human), O76036
Sequence (O76036 22-255 limits assumed): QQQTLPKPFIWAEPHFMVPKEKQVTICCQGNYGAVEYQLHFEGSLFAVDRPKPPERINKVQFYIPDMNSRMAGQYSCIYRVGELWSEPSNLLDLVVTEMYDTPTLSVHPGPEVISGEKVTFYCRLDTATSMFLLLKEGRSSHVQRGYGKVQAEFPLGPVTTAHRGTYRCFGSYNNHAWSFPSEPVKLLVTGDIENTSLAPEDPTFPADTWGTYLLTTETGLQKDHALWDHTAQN
assay protocol: SPR Method 1 and/or 2
Known pKd of a selection of binders
Just the number, please; pKd means minus log10 of the concentration in mol/L.

// query Suppose we examine the binder CDLTTHNCQWGICA (modifications not checked) [BCY19718] ; what pKd value has been reported?
// result 5.95

// query Moving on to the next binder: ACNLQAPCMATGKVCA (modifications not checked) [BCY18301]
// result 5.39

// query Moving on to the next binder: CNLQAPCMLTGKVC (modifications not checked) [BCY18295]
// result 5.19

// query Moving on to the next binder: ACNLQAPCMVTGKVCA (modifications not checked) [BCY19702]
// result 5.57

// query Moving on to the next binder: ACLLHDHCPNTHPKMCA (modifications not checked) [BCY14457]
// result 5.64

// query Moving on to the next binder: ACNLQAPCMLTGAVCA (modifications not checked) [BCY18304]
// result 5.82

// query Moving on to the next binder: ACDLTTHNCVWGICA (modifications not checked) [BCY18285]
// result 5.42
